Source of measurements: the RNAGym collection of RNA variant scans (doi:10.1021/acssynbio.7b00057)

B1: Pistol ribozyme (parent)
chain: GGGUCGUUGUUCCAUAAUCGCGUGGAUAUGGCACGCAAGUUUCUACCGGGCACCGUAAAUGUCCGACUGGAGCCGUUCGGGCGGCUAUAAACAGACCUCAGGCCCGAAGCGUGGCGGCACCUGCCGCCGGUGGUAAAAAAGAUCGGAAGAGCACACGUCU

Variants of: B1
Assay: aptazyme ON/OFF ratio, guanine; higher = stronger switching; co-transcriptional cleavage with and without guanine
MEASURED_METRIC: aptazyme ON/OFF ratio
Could you keep your reply to the number by itself?

                      mutation_key  readout_value
0      U7C U8C U10C U11G C12A C13A           1.32
1            U7C U8G G9A U10G C13G           1.16
2  U7A U8C G9U U10C U11G C12A C13G           1.11
3      U8G G9C U10C U11C C12A C13A           1.02
4                     U7A U8G C12U           1.61

*Q* If you can, please state the reported aptazyme ON/OFF ratio value of U8G G9C C12U C13G .
*A* 1.04

*Q* # aptazyme ON/OFF ratio lookup, item U7G U8G G9C U10C U11G C12G
*A* 1.23

*Q* # input variant: U7G U8G G9U U10G U11A C12G C13G ; wanted: its aptazyme ON/OFF ratio
*A* 1.15

*Q* Give its aptazyme ON/OFF ratio value. Item: U7G U8G G9A U10C U11G
*A* 1.89

*Q* State the recorded aptazyme ON/OFF ratio for this entry: U7G U8G G9A U10C U11C C13A
*A* 0.99

*Q* Entry U7C U8C G9C U10A U11G C12U C13A : reported aptazyme ON/OFF ratio = ?
*A* 1.15

*Q* Quick one: aptazyme ON/OFF ratio for U7A U8A G9C U11G C12U C13U ?
*A* 1.09

*Q* What does the data say about its aptazyme ON/OFF ratio? Entry: U7C U8G U10A U11A C12G
*A* 1.08

*Q* Entry U7A U8C G9A U10C C13G has what aptazyme ON/OFF ratio?
*A* 1.07

*Q* Give the measured aptazyme ON/OFF ratio of U7G U8C G9C U10G U11G C12U C13A .
*A* 1.09
